Tested on: P388 leukemia ip, CD2F1 mice, survival T/C
ASSAY NAME: NCI In Vivo Anticancer Drug Screen. Data for tumor model P388 Leukemia (intraperitoneal) in CD2F1 (CDF1) mice
TEST CONDITIONS: endpoint: median survival time; dose: 12.5 mg/kg/injection; schedule: Q01DX009 (ip); vehicle: other; higher = longer survival
Inconclusive results and toxic doses are left out.
T/C values for the compounds below.

Recorded results for 5 compounds are shown here.
{"INPUT SMILES": "O=C1/C(=C/c2cccnc2)Cc2ccccc21", "T/C": "103 % of control"}
{"INPUT SMILES": "CCOC(=O)N(NC(=O)c1ccccc1)C(C)=O", "T/C": "111 % of control"}
{"INPUT SMILES": "N=C(N)c1nc2ccccc2s1", "T/C": "102 % of control"}
{"INPUT SMILES": "CCOC(=O)C(=CCBr)C(=O)OCC", "T/C": "106 % of control"}
{"INPUT SMILES": "COc1cc2c(cc1OC)C(=O)c1ncccc1C2=O", "T/C": "104 % of control"}

Now let's try a different one.
Just so you know, measured T/C for `Cc1ccc(S(=O)(=O)N/N=C/c2ccc(N(C)C)cc2)cc1` came out at 113 % of control
